Listing of entries alongside the reported Ki.
MEASURED_TARGET: human V1a receptor (Homo sapiens, UniProt P37288)
Construct: expressed in transfected cells; host or cells: HEK293 cells, transiently transfected; membranes prepared
Sequence (P37288 whole entry): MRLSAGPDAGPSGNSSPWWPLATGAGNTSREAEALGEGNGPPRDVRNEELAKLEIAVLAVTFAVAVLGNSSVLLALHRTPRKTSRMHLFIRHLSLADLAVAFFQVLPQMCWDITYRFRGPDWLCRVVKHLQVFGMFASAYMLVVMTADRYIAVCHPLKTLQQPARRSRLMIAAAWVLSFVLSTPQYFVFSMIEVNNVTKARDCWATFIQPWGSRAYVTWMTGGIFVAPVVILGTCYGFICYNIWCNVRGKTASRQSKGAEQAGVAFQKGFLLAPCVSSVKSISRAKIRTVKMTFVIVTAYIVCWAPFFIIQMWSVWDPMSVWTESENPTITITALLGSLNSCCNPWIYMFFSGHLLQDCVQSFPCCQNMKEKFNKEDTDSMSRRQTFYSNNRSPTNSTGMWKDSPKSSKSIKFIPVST
EXPERIMENT_DESCRIPTION: human V1a receptor binding studies (3H-Vasopressin SPA, membranes of transfected HEK293 cells)
STUDY_CONDITIONS: 3H-Vasopressin displacement, HEK293 cell membranes, Ki calculated from IC50 by Cheng-Prussoff equation; read-out: pKi hV1a (converted)
MEASURE_NAME: Ki (nM)

| MOLECULE | MEASURE_NAME | REPORTED_VALUE |
| --- | --- | --- |
| CC(C)(C)OC(=O)N1Cc2cc(Cl)ccc2-n2c(nnc2N2CCC3(CC2)OCc2ccccc23)C1 | Ki | 4.47 |
| CN1Cc2cc(Cl)ccc2-n2c(nnc2N2CCC[C@@]3(CC2)OCc2ccccc23)C1 | Ki | 1.45 |
| CN1Cc2cc(Cl)ccc2-n2c(nnc2N2CCC[C@]3(CC2)OCc2ccccc23)C1 | Ki | 5.01 |
| CN1Cc2cc(Cl)ccc2-n2c(nnc2N2CCC3(CC2)OCc2ccc(F)cc23)C1 | Ki | 7.59 |
| CC(C)N1Cc2cc(Cl)ccc2-n2c(nnc2N2CCC3(CC2)OCc2ccccc23)C1 | Ki | 1.82 |
| CN1Cc2cc(Cl)ccc2-n2c(nnc2N2CCC3(CC2)OCc2cc(F)ccc23)C1 | Ki | 2.09 |
| CC1OC2(CCN(c3nnc4n3-c3ccc(Cl)cc3CN(C)C4)CC2)c2ccccc21 (racemic) | Ki | 4.79 |
| CN1Cc2cc(Cl)ccc2-n2c(nnc2N2CCC3(CC2)OCc2cccc(F)c23)C1 | Ki | 3.98 |

Each recorded value in this set is attributed to patent US8664216B2.
